Values were extracted from patent US6689806B1.

Listed here are compounds together with their documented IC50.
- target system: EGFR (Homo sapiens)
- Sequence (P00533 25-1210): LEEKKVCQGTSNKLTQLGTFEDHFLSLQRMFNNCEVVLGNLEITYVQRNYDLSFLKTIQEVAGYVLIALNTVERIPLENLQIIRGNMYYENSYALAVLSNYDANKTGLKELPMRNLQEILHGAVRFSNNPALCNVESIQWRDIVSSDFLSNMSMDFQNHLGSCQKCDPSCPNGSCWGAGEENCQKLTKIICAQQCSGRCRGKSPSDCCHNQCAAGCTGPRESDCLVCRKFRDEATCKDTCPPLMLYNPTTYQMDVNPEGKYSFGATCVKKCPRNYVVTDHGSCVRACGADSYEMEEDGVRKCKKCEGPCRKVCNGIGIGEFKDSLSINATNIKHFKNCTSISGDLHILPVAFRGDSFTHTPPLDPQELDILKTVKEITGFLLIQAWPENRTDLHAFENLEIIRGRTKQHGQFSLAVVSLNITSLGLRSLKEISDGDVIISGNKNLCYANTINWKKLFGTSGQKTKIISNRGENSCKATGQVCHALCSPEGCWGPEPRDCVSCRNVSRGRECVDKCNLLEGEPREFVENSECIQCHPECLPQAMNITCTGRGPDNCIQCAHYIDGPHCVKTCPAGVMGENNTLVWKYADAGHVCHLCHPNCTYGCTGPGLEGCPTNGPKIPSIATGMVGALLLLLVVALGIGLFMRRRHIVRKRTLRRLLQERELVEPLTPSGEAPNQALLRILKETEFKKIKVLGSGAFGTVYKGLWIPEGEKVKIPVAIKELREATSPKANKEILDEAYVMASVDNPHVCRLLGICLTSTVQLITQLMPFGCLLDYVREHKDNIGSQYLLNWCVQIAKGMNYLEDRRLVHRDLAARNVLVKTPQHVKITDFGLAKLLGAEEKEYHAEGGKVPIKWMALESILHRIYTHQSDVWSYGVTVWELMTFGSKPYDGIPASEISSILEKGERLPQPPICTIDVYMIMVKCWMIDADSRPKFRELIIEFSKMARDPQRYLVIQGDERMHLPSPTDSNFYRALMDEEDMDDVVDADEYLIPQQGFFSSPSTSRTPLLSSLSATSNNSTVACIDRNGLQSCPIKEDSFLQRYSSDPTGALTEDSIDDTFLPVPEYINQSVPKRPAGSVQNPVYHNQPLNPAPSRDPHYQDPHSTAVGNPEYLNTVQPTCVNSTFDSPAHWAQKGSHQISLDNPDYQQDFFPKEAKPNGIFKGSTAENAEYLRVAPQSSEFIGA
- test description: Biochemical EGFR assay (ELISA)
- Design: A431 cell lysate; endogenous in cells; host or cells: A431
- assay conditions: Table 7, in vitro kinase activity, read-out: EGFr biochem IC50
observation type: IC50

>  <smiles representation>
COCCc1cccc2c1CC(=O)N2

>  <observed measurement>
> 100 µM

$$$$
>  <smiles representation>
CC(C)c1cccc(OCCc2cccc3c2CC(=O)N3)c1

>  <observed measurement>
> 100 µM

$$$$
>  <smiles representation>
O=C1Nc2cccc(CCO)c2/C1=C/c1ccccn1

>  <observed measurement>
> 100 µM

$$$$
